The molecules listed here are annotated with their Herbicidal rate (%) Monochoria vaginalis.
System: broad leaf weeds (Lindernia pyxidaria and Monochoria vaginalis)
Experiment: Test Example 1: herbicidal effect test by treatment of rice paddy soil (immediately after seeding)
Type: in vivo
Conditions: Monochoria vaginalis, 120 g/10a active ingredient, dry weight vs untreated area, 14 days after treatment
Value expressed in %; do not type the unit.

Look over these answered cases.
molecule=CCOC(=O)N(c1ccccc1Cc1c(C)n(CC(C)C)oc1=O)S(=O)(=O)C(F)(F)F result_value=80
molecule=Cc1c(Cc2ccccc2N(C(=O)Oc2ccccc2)S(=O)(=O)C(F)(F)F)c(=O)on1C(C)(C)C result_value=90

Lookup: Give me measured Herbicidal rate (%) Monochoria vaginalis, please, for this molecule: CCC(C)Cn1oc(=O)c(Cc2ccccc2N(C(=O)OCCOC)S(=O)(=O)C(F)(F)F)c1C (centres unmarked)
Found: 90

Lookup: Give me measured Herbicidal rate (%) Monochoria vaginalis, please, for this molecule: C#CCn1oc(=O)c(Cc2ccccc2N(S(=O)(=O)C(F)(F)F)S(=O)(=O)C(F)(F)F)c1C
Found: 100

Lookup: Give me measured Herbicidal rate (%) Monochoria vaginalis, please, for this molecule: Cc1c(Cc2ccccc2NS(=O)(=O)C(F)(F)F)c(=O)on1CCSC(C)C
Found: 90

Lookup: Give me measured Herbicidal rate (%) Monochoria vaginalis, please, for this molecule: Cc1c(Cc2ccccc2NS(=O)(=O)C(F)(F)F)c(=O)on1Cc1ccc(C#N)cc1
Found: 90

Lookup: Give me measured Herbicidal rate (%) Monochoria vaginalis, please, for this molecule: COCC(C)n1oc(=O)c(Cc2ccccc2N(C(=O)Cc2ccccc2)S(=O)(=O)C(F)(F)F)c1C (centres unmarked)
Found: 90

Lookup: Give me measured Herbicidal rate (%) Monochoria vaginalis, please, for this molecule: CCCC(c1ccccc1)n1oc(=O)c(Cc2ccccc2NS(=O)(=O)C(F)(F)F)c1C (centres unmarked)
Found: 80

* * *

The compounds listed here are annotated with their herbicidal rate, Chenopodium album.
Tested on: Chenopodium album
Assay: Test Example 3: herbicidal effect test by treatment of dry field farming soil (one day after seeding)
Format: in vivo
Settings: 120 g/10a active ingredient, evaluated 14 days after treatment
Experimental: This test was conducted in a double system per one agent solution concentration area, and the herbicidal rates (%) were determined by the following equation (Math. 1) on 14 days after the treatment with the agents. […] Pots with a size of 36 cm^2 were filled with a dry field farming soil (alluvium). […] The herbicidal effects were evaluated by the same standard as that in Test Example 1 on 14 days after the treatment with the agents. […]
Value expressed in %; do not type the unit.

Look over these answered cases.
compound="CCCC(C)n1oc(=O)c(Cc2ccccc2N(S(C)(=O)=O)S(=O)(=O)C(F)(F)F)c1C (centres unmarked)" result_value=60
compound="CCCC(C)n1oc(=O)c(Cc2ccccc2N(C(=O)C2CC2)S(=O)(=O)C(F)(F)F)c1C (centres unmarked)" result_value=60
compound=Cc1c(Cc2ccccc2N(S(=O)(=O)C(F)(F)F)S(=O)(=O)C(F)(F)F)c(=O)on1CC(C)(C)C result_value=90
compound=Cc1c(Cc2ccccc2NS(=O)(=O)C(F)(F)F)c(=O)on1C result_value=0
compound=Cc1c(Cc2ccccc2N(C(=O)OC(C)C)S(=O)(=O)C(F)(F)F)c(=O)on1C(C)(C)C result_value=90

Lookup: Give me measured herbicidal rate, Chenopodium album, please, for this compound: Cc1c(Cc2ccccc2NS(=O)(=O)C(F)(F)F)c(=O)on1Cc1ccc(F)cc1
Found: 60

Lookup: Give me measured herbicidal rate, Chenopodium album, please, for this compound: Cc1c(Cc2ccccc2NS(=O)(=O)C(F)(F)F)c(=O)on1C(c1ccccc1)C(C)C (centres unmarked)
Found: 100

Lookup: Give me measured herbicidal rate, Chenopodium album, please, for this compound: CSCCn1oc(=O)c(Cc2ccccc2N(C(=O)C2CC2)S(=O)(=O)C(F)(F)F)c1C
Found: 90

* * *

Test system: broad leaf weeds (Lindernia pyxidaria and Monochoria vaginalis)
Assay: Test Example 1: herbicidal effect test by treatment of rice paddy soil (immediately after seeding)
Assay type: in vivo
Details: Monochoria vaginalis, 120 g/10a active ingredient, dry weight vs untreated area, 14 days after treatment
Observed Property: Herbicidal rate (%) Monochoria vaginalis
Value expressed in %; do not type the unit.

compound="COCC(C)n1oc(=O)c(Cc2ccccc2N(C(=O)OCc2ccccc2)S(=O)(=O)C(F)(F)F)c1C (stereo not drawn)" observed_property="Herbicidal rate (%) Monochoria vaginalis" result_value=90
compound="Cc1c(Cc2ccccc2NS(=O)(=O)C(F)(F)F)c(=O)on1C(C)c1ccc(F)cc1 (stereo not drawn)" observed_property="Herbicidal rate (%) Monochoria vaginalis" result_value=90
compound="COCC(C)n1oc(=O)c(Cc2ccccc2N(C(=O)OCC(C)C)S(=O)(=O)C(F)(F)F)c1C (stereo not drawn)" observed_property="Herbicidal rate (%) Monochoria vaginalis" result_value=90
compound=CCC(CC)n1oc(=O)c(Cc2ccccc2N(C(C)=O)S(=O)(=O)C(F)(F)F)c1C observed_property="Herbicidal rate (%) Monochoria vaginalis" result_value=90
compound=Cc1c(Cc2ccccc2NS(=O)(=O)C(F)(F)F)c(=O)on1Cc1ccccc1F observed_property="Herbicidal rate (%) Monochoria vaginalis" result_value=90

Lookup: Give me measured Herbicidal rate (%) Monochoria vaginalis, please, for this compound: Cc1c(Cc2ccccc2NS(=O)(=O)C(F)(F)F)c(=O)on1Cc1cccs1
Found: 90

Lookup: Give me measured Herbicidal rate (%) Monochoria vaginalis, please, for this compound: Cc1c(Cc2ccccc2N(C(=O)Oc2ccccc2)S(=O)(=O)C(F)(F)F)c(=O)on1C(C)c1ccccc1 (stereo not drawn)
Found: 90

Lookup: Give me measured Herbicidal rate (%) Monochoria vaginalis, please, for this compound: COCC(C)n1oc(=O)c(Cc2ccccc2N(C(=O)OC(C)C)S(=O)(=O)C(F)(F)F)c1C (stereo not drawn)
Found: 90

Lookup: Give me measured Herbicidal rate (%) Monochoria vaginalis, please, for this compound: Cc1c(Cc2ccccc2NS(=O)(=O)C(F)(F)F)c(=O)on1Cc1ccc(F)c(Cl)c1
Found: 90
